These entries and their values trace back to patent US8546376B2.

target: AKT1 (Homo sapiens); test: AKT Kinase Assay (IMAP fluorescent polarisation) vs AKT1; details: activated AKT1, FAM Crosstide substrate
Sequence (P31749 whole entry): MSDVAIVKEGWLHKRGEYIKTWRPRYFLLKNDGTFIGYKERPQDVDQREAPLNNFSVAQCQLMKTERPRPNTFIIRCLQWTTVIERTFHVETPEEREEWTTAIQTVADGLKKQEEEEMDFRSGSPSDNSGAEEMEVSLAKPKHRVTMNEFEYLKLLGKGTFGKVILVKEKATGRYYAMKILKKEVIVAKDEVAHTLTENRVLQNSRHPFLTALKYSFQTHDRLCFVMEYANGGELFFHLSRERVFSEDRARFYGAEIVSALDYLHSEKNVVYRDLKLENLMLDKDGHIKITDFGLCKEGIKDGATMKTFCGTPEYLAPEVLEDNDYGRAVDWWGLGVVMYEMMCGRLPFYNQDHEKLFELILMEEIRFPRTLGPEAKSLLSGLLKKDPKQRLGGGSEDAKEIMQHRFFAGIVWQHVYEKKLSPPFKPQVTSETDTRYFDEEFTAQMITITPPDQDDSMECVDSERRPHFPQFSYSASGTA
pIC50: −log10 of the molar value.
# key: entry, value: pIC50

Query string: Reported pIC50, compound COc1ccc2c(=O)c(-c3ccc(C4(N)CCC4)cc3)c(-c3ccccc3)oc2c1C#N [Example 12] : ____
Result string: 5.00 to 6.00

###

target: AKT2 (Homo sapiens, UniProt P31751); experiment: AKT Kinase Assay (IMAP fluorescent polarisation) vs AKT2; conditions: activated AKT2, FAM Crosstide substrate
Sequence (P31751 whole entry): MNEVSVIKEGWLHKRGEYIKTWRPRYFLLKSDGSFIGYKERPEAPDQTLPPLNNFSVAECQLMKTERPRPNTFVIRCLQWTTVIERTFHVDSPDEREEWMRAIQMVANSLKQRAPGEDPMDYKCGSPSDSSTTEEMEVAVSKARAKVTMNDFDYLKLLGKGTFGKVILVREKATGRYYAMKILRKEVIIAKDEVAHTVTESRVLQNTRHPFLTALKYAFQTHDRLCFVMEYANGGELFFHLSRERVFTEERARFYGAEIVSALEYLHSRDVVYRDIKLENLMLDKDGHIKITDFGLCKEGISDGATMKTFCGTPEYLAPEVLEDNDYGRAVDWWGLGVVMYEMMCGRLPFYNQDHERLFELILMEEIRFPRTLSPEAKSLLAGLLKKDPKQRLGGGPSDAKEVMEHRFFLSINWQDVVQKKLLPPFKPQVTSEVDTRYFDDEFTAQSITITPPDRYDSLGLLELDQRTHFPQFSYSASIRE
pIC50: −log10 of the molar value.
Listed compounds paired with reported pIC50

Query string: Bench note: what pIC50 did NC1(c2ccc(-c3c(-c4ccccc4)oc4c(-c5ccc(C6(N)CCC6)cc5)nccc4c3=O)cc2)CCC1 show?
Result string: < 5.00

Query string: Suppose we examine the compound NC1(c2ccc(-c3c(-c4ccccc4)oc4c5c(ccc4c3=O)NC(=O)CO5)cc2)CCC1 ; what pIC50 value has been reported?
Result string: ≥ 6.00

Query string: Reported pIC50 for COc1cc2c(=O)c(-c3ccc(C4(N)CCC4)cc3)c(-c3ccccc3)oc2cc1-c1ccn[nH]1 : what is it?
Result string: 5.00 to 6.00
